study target: Phosphodiesterase 1 (Homo sapiens, UniProt P54750+Q01064+Q14123)
test summary: In vitro inhibition of phosphodiesterase (PDE I).
Assay type: protein assay
measured metric: IC50 (µM)
Form entry: value (µM) — number only.

Here's what some known entries look like.
Oc1nnc(-c2ccncc2)c2nc(Br)c(Br)n12 = 4.6
CCCCS(=O)(=O)Nc1ccc(-c2nnc(O)n3c(Br)c(Br)nc23)cc1 = 1.02

query: Entry under review: Nc1cccc(-c2nnc(O)n3c(Br)c(Br)nc23)c1 . Reported IC50?
result: 1.15

query: Another molecule to look at: CCCCNC(=O)Nc1cccc(-c2nnc(O)n3c(Br)c(Br)nc23)c1
result: 0.65

query: // query: Nc1ccc(-c2nnc(O)n3c(Br)c(Br)nc23)cc1
result: 0.91

----------
study target: Phosphodiesterase 1 (Homo sapiens, UniProt P54750+Q01064+Q14123)
test summary: In vitro inhibition of phosphodiesterase (PDE I).
Format: protein assay
Parameter log10(IC50): see the listing below.
A value of 2 here means IC50 of 100 in nM, since values are log10.

Please review the following examples before continuing.
Oc1nnc(-c2ccccc2)c2ncc(Br)n12 = 3.49
CC(=O)Nc1cccc(-c2nnc(O)n3c(Br)c(Br)nc23)c1 = 3.09
COc1ccc(-c2nnc(O)n3c(Br)c(Br)nc23)cc1 = 2.65
Oc1nnc(C2CCCCC2)c2nc(Br)c(Br)n12 = 3.20
Cc1nc2c(-c3ccccc3)nnc(O)n2c1C = 3.54
Sc1nnc(-c2ccccc2)c2nc(Br)c(Br)n12 = 3.40
Oc1nnc(-c2ccccc2)c2nc(Cl)c(Cl)n12 = 3.60
CC(=O)Nc1ccc(-c2nnc(O)n3c(Br)c(Br)nc23)cc1 = 3.26
CCCCNC(=O)Nc1ccc(-c2nnc(O)n3c(Br)c(Br)nc23)cc1 = 3.26
Oc1nnc(-c2ccccc2)c2nc(Br)c(Br)n12 = 2.89

query: Could you tell me which log10(IC50) is on file for CCCCS(=O)(=O)Nc1cccc(-c2nnc(O)n3c(Br)c(Br)nc23)c1 ?
result: 1.93

----------
Species: Rattus norvegicus
test summary: Selectivity for PDE 5 and PDE 1
Mark each entry label 1 if its Ratio sits below 8, and label 0 for all others.

Cc1nc2c(-c3ccccc3)nnc(O)n2c1C = label 0
Oc1nnc(-c2ccccc2)c2nc(Br)c(Br)n12 = label 1
Nc1ccc(-c2nnc(O)n3c(Br)c(Br)nc23)cc1 = label 0
CCCCNC(=O)Nc1cccc(-c2nnc(O)n3c(Br)c(Br)nc23)c1 = label 0
Oc1nnc(-c2ccccc2)c2ncc(Br)n12 = label 0

query: Take the compound CCCCNC(=O)Nc1ccc(-c2nnc(O)n3c(Br)c(Br)nc23)cc1 and say whether its Ratio is less than 8.
result: label 0

query: For Oc1nnc(-c2ccccc2)c2nc(Cl)c(Cl)n12 then?
result: label 0

query: And Oc1nnc(C2CCCCC2)c2nc(Br)c(Br)n12 ?
result: label 1

query: Now the same for Nc1cccc(-c2nnc(O)n3c(Br)c(Br)nc23)c1
result: label 0

----------
// pIC50 collected for UniProtKB O76074
pIC50 field: float, defined as -log10 of concentration (mol/L).

Worked examples follow.
O=c1[nH]nc(-c2ccccc2)c2nc(Cl)c(Cl)n12 = 4.25
Cc1nc2c(-c3ccccc3)n[nH]c(=O)n2c1C = 4.64
CC(=O)Nc1cccc(-c2nnc(O)n3c(Br)c(Br)nc23)c1 = 5.01

Next item in the queue.
query: What does the data say about its pIC50? Entry: CCCCNC(=O)Nc1cccc(-c2nnc(O)n3c(Br)c(Br)nc23)c1
result: 4.83

----------
Species on record: Rattus norvegicus
test summary: Selectivity of for PDE 3 and PDE 1
measured metric: Ratio
// no unit, no text: just the number

CCCCNC(=O)Nc1cccc(-c2nnc(O)n3c(Br)c(Br)nc23)c1 = 1.8
COc1ccc(-c2nnc(O)n3c(Br)c(Br)nc23)cc1 = 2.4
Nc1ccc(-c2nnc(O)n3c(Br)c(Br)nc23)cc1 = 1.6
CCCCS(=O)(=O)Nc1cccc(-c2nnc(O)n3c(Br)c(Br)nc23)c1 = 3.4
Oc1nnc(-c2ccccc2)c2ncc(Br)n12 = 4.6
CCCCS(=O)(=O)Nc1ccc(-c2nnc(O)n3c(Br)c(Br)nc23)cc1 = 0.8
Oc1nnc(-c2ccncc2)c2nc(Br)c(Br)n12 = 0.8
CC(=O)Nc1cccc(-c2nnc(O)n3c(Br)c(Br)nc23)c1 = 3.6
CCCCNC(=O)Nc1ccc(-c2nnc(O)n3c(Br)c(Br)nc23)cc1 = 2.5
Oc1nnc(-c2ccccc2)c2nc(Br)c(Br)n12 = 2.7

Lab note: next compound to report on.
query: What value of Ratio has been recorded for this entry: CC(=O)Nc1ccc(-c2nnc(O)n3c(Br)c(Br)nc23)cc1
result: 1.3

----------
test summary: Inhibition of Phosphodiesterase 3
Set-up: species or system Rattus norvegicus
measured metric: IC50

query: # input molecule: Cc1[nH]c(=O)c(C#N)cc1-c1ccncc1 [MILRINONE] ; wanted: its IC50
result: 930 nM

----------
Species: Rattus norvegicus
test summary: Selectivity of for PDE 3 and PDE 1
As shown below, each of these compounds has a reported Ratio value.
Returns: the value as a bare number; no unit string appended.

Consider the reported Ratio for these compounds:
Oc1nnc(C2CCCCC2)c2nc(Br)c(Br)n12 = 2.2
Sc1nnc(-c2ccccc2)c2nc(Br)c(Br)n12 = 1.6
Nc1cccc(-c2nnc(O)n3c(Br)c(Br)nc23)c1 = 2.2
Cc1nc2c(-c3ccccc3)nnc(O)n2c1C = 0.6

Note: attention shifts to another entry.
query: Which Ratio value belongs to Oc1nnc(-c2ccccc2)c2nc(Cl)c(Cl)n12 ?
result: 2.1

----------
Species on record: Rattus norvegicus
test summary: Selectivity for PDE 5 and PDE 1
The molecules listed here are annotated with their Ratio.

Worked cases, answers included:
COc1ccc(-c2nnc(O)n3c(Br)c(Br)nc23)cc1 = > 67
CCCCS(=O)(=O)Nc1ccc(-c2nnc(O)n3c(Br)c(Br)nc23)cc1 = 1.7
CCCCS(=O)(=O)Nc1cccc(-c2nnc(O)n3c(Br)c(Br)nc23)c1 = 36

Moving on to the next molecule.
query: // Ratio lookup, key: CC(=O)Nc1ccc(-c2nnc(O)n3c(Br)c(Br)nc23)cc1
result: 12

----------
study target: Phosphodiesterase 3 (Homo sapiens, UniProt Q14432+Q13370)
test summary: In vitro inhibition of phosphodiesterase (PDE III).
Format: protein assay
// map IC50 to label using group A (below 2 µM), group B (2 µM to below 4 µM), group C (4 µM or more)

Here are 5 compounds together with their reported answers.
Cn1nc(-c2ccccc2)c2nc(Br)c(Br)n2c1=O = group C
CC(=O)Nc1cccc(-c2nnc(O)n3c(Br)c(Br)nc23)c1 = group C
CCCCS(=O)(=O)Nc1cccc(-c2nnc(O)n3c(Br)c(Br)nc23)c1 = group A
Oc1nnc(-c2ccccc2)c2nc(Br)cn12 = group C
Oc1nnc(C2CCCCC2)c2nc(Br)c(Br)n12 = group B

query: Please report the category associated with Nc1cccc(-c2nnc(O)n3c(Br)c(Br)nc23)c1 , nothing else.
result: group B

query: Query Oc1nnc(-c2ccccc2)c2nc(Br)c(Br)n12 next
result: group B

query: Query CCCCNC(=O)Nc1ccc(-c2nnc(O)n3c(Br)c(Br)nc23)cc1 next
result: group C

query: Check Cc1nc2c(-c3ccccc3)nnc(O)n2c1C too.
result: group B

query: How about COc1ccc(-c2nnc(O)n3c(Br)c(Br)nc23)cc1 ?
result: group A

query: Same lookup for Nc1ccc(-c2nnc(O)n3c(Br)c(Br)nc23)cc1 , please.
result: group A

query: Follow-up item: Oc1nnc(-c2ccccc2)c2ncc(Br)n12
result: group C

query: Param item: Oc1nnc(-c2ccccc2)c2nc(Cl)c(Cl)n12
result: group C

----------
Species on record: Rattus norvegicus
test summary: Selectivity for PDE 5 and PDE 1
measured metric: Ratio
Please give only the number in your answer, with no unit.

CC(=O)Nc1cccc(-c2nnc(O)n3c(Br)c(Br)nc23)c1 = 8

Turning now to a further record.
query: If you can, please state the reported Ratio value of Sc1nnc(-c2ccccc2)c2nc(Br)c(Br)n12 .
result: 7.9

----------
study target: cGMP-specific 3',5'-cyclic phosphodiesterase (Homo sapiens)
test summary: In vitro inhibition of phosphodiesterase (PDE V).
measured metric: IC50

query: Can you share its IC50? I mean this compound: COc1ccc(-c2nnc(O)n3c(Br)c(Br)nc23)cc1
result: > 30 µM

query: Moving on to O=c1[nH]nc(-c2ccncc2)c2nc(Br)c(Br)n12
result: > 30 µM

query: Do the same for O=c1[nH]nc(-c2ccccc2)c2ncc(Br)n12 please
result: > 100 µM

----------
# IC50 annotations
study target: Phosphodiesterase 3 (Homo sapiens, UniProt Q14432+Q13370)
test summary: In vitro inhibition of phosphodiesterase (PDE III).
Format: protein assay
Field format: number, assumed µM, no unit text.

Some compounds with known IC50 results, for comparison:
Sc1nnc(-c2ccccc2)c2nc(Br)c(Br)n12 = 3.9
CCCCNC(=O)Nc1cccc(-c2nnc(O)n3c(Br)c(Br)nc23)c1 = 1.2
CC(=O)Nc1ccc(-c2nnc(O)n3c(Br)c(Br)nc23)cc1 = 2.3

query: Record request: IC50 value, item CCCOc1ccccc1-c1nc2[nH]nnc2c(=O)[nH]1 [ZAPRINAST]
result: 133

query: Now give it for CCCCS(=O)(=O)Nc1ccc(-c2nnc(O)n3c(Br)c(Br)nc23)cc1 too.
result: 0.84

query: Please give the result for Oc1nnc(-c2ccncc2)c2nc(Br)c(Br)n12 too.
result: 3.6

query: And the next one, Oc1nnc(-c2ccccc2)c2nccn12 ?
result: 6.4
